Experiment: qHTS for Inhibitors of binding or entry into cells for Marburg Virus; note: % is set by controls: 0 for no effect and ±100 for the full control effect
Details: Marburg virus pseudotype entry/binding inhibition, cell-based; series mostly up to 49.2 µM
Hit rate of the full screen: of about 18,000 compounds, about 1,200 (6.7%) were called active. Inconclusive results (about 16%) are left out. The sample as a whole holds a higher share of actives than the screen did.
measured-attribute: activity change, negative = inhibition

Worked examples, 5 molecules total:
{"molecule": "CCCNC(=O)CC1OC(C2CCCCC2)Cc2ccccc21 (stereo unspecified)", "endpoint-value": "-26.1% [at 8.59 µM] (inactive)"}
{"molecule": "C=CCOC(=O)C(=C)C", "endpoint-value": "inactive"}
{"molecule": "CC(C)(C)OC(=O)N1CCC(C(=O)Nc2cccc(C(=O)NCCc3ccccc3)c2)CC1", "endpoint-value": "inactive"}
{"molecule": "CCOC(=O)Cn1c(=O)sc2cccc(Cl)c21", "endpoint-value": "inactive"}
{"molecule": "CCCCN1CC(CO)Oc2cccc(F)c2S1(=O)=O (stereo unspecified)", "endpoint-value": "inactive"}

Pending molecule:
Summary for this molecule, Cc1cc2c(nc1C)CCCCN2C[C@H](C)ON=C1[C@H]2CCn3c(=O)n(-c4ccccc4)c(=O)n3[C@@H]2[C@H](O)[C@@H]2O[C@H]12 : activity change, negative = inhibition is 26% [at 8.59 µM] (inactive)

----------
Assay: qHTS for Inhibitors of binding or entry into cells for Marburg Virus; note: % is set by controls: 0 for no effect and ±100 for the full control effect
Settings: Marburg virus pseudotype entry/binding inhibition, cell-based; series mostly up to 49.2 µM
About 1,200 (6.7%) of roughly 18,000 compounds were called active. Not shown: some 16% with an inconclusive outcome. Many of the other results were omitted from the sample, so actives are more common in it than they were.
measured-attribute: activity change, negative = inhibition

The following compounds have reported results that may help.
{"compound": "COC(=O)C12C[C@H](C)C3C(C)C(c4ccccc4C31)N2C(=O)C(F)(F)F (stereo not given in full)", "activity change, negative = inhibition": "-25.2% [at 8.59 µM] (inactive)"}
{"compound": "COC(=O)C(C(=O)OC)[C@@H](NC=O)c1ccccc1", "activity change, negative = inhibition": "inactive"}
{"compound": "CC(C)(O)CCC(O)[C@@](C)(O)C1CC[C@]2(O)C3=CC(=O)C4CC(O)C(O)C[C@]4(C)C3CC[C@]12C (stereo not given in full)", "activity change, negative = inhibition": "inactive"}
{"compound": "CC(C)[C@H]1COCCS(=O)(=O)N1Cc1ccccc1-c1cccc2c1sc1ccccc12", "activity change, negative = inhibition": "inactive"}

CC1(OC(=O)C2CCCC2)C(=O)C=C2C=C(c3ccc(C#N)cc3)OC=C2C1=O (stereo not given) yielded activity change, negative = inhibition of inactive
